system: BV-2 mouse microglial cells; assay: NO (nitric oxide) inhibitory activity in LPS-treated microglial cells; type: cell-based; conditions: 10 μM, LPS 1 μg/ml, 24 hours, read-out: Amount of NO (% of control)
Where a name gives a salt, the structure may show the parent alone.

{"columns": ["Compound", "Unit annotation", "Qualifier symbol", "activity at 10 µM"],
 "data": [
  ["N=S(=O)(/C=C/c1ccccn1)c1ccccc1F (centres unmarked) [Compound 1-1]", "%", "<", 3],
  ["COc1ccc(S(=N)(=O)/C=C/c2ccccn2)cc1 (centres unmarked) [Compound 1-2]", "%", "=", 35.8],
  ["COc1ccccc1S(=N)(=O)/C=C/c1ncccc1Cl (centres unmarked) [Compound 1-8]", "%", "=", 14.2],
  ["N=S(=O)(/C=C/c1cccnc1Cl)c1ccccc1Cl (centres unmarked) [Compound 1-13]", "%", "=", 9.26],
  ["N=S(=O)(/C=C/c1ccccc1C(F)(F)F)c1ccccn1 (centres unmarked) [Compound 1-17]", "%", "<", 3],
  ["COc1ccc(S(=N)(=O)/C=C/c2ncccc2Cl)cc1 (centres unmarked) [Compound 1-10]", "%", "<", 3],
  ["COC(=O)/C=C/C(=O)OC [DMF, Dimethyl fumarate, reference compound]", "%", "=", 16.3],
  ["N=S(=O)(/C=C/c1ccc(Cl)cc1)c1ccccn1 (centres unmarked) [Compound 1-20]", "%", "=", 20.3],
  ["N=S(=O)(/C=C/c1cccc(Cl)c1)c1ccccn1 (centres unmarked) [Compound 1-16]", "%", "<", 3],
  ["N=S(=O)(/C=C/c1ncccc1F)c1ccccc1F (centres unmarked) [Compound 1-5]", "%", "=", 7.96],
  ["N=S(=O)(/C=C/c1ccccc1OC(F)(F)F)c1ccccn1 (centres unmarked) [Compound 1-18]", "%", "<", 3]
]}
